- Tested on: Fusobacterium mortiferum
- Protocol notes: Antimicrobial activity against Clostridium rectum by Wadsworth agar dilution method
- Assay type: functional
Entries and their MIC90 values follow.
Field format: number, assumed µg/mL, no unit text.

{"columns": ["Compound", "Endpoint unit", "MIC90"],
 "data": [
  ["NC[C@@H]1O[C@H](O[C@H]2[C@@H](O)[C@H](O[C@@H]3[C@@H](O)[C@H](N)C[C@H](N)[C@H]3O[C@H]3O[C@H](CN)[C@@H](O)[C@H](O)[C@H]3N)O[C@@H]2CO)[C@H](N)[C@@H](O)[C@@H]1O", "µg/mL", 1020]
]}

[ask] Please tell me the measured MIC90 for CC(=O)Oc1ccccc1C(=O)Nc1ncc([N+](=O)[O-])s1 [NITAZOXANIDE] ; system: Fusobacterium mortiferum.
[reply] 4

[ask] Please tell me the measured MIC90 for CN[C@H](CC(C)C)C(=O)N[C@H]1C(=O)N[C@@H](CC(N)=O)C(=O)N[C@H]2C(=O)N[C@H]3C(=O)N[C@H](C(=O)N[C@H](C(=O)O)c4cc(O)cc(O)c4-c4cc3ccc4O)[C@H](O)c3ccc(c(Cl)c3)Oc3cc2cc(c3O[C@@H]2O[C@H](CO)[C@@H](O)[C@H](O)[C@H]2O[C@H]2C[C@](C)(N)[C@H](O)[C@H](C)O2)Oc2ccc(cc2Cl)[C@H]1O ; system: Fusobacterium mortiferum.
[reply] 4

###

- Test system: Thomasclavelia ramosa
- Protocol notes: Antimicrobial activity against Clostridium ramosum by Wadsworth agar dilution method
- Format: functional
Entries and their MIC50 values follow.
Field format: number, assumed mg/L, no unit text.

Here's what some known entries look like.
{"columns": ["Molecule", "MIC50 (mg/L)"],
 "data": [
  ["CO[C@H]1/C=C/O[C@@]2(C)Oc3c(C)c(O)c4c(O)c(c5c(nc6cc(C)ccn65)c4c3C2=O)NC(=O)/C(C)=C\\C=C\\[C@H](C)[C@H](O)[C@@H](C)[C@@H](O)[C@@H](C)[C@H](OC(C)=O)[C@@H]1C", 0.25],
  ["CN[C@H](CC(C)C)C(=O)N[C@H]1C(=O)N[C@@H](CC(N)=O)C(=O)N[C@H]2C(=O)N[C@H]3C(=O)N[C@H](C(=O)N[C@H](C(=O)O)c4cc(O)cc(O)c4-c4cc3ccc4O)[C@H](O)c3ccc(c(Cl)c3)Oc3cc2cc(c3O[C@@H]2O[C@H](CO)[C@@H](O)[C@H](O)[C@H]2O[C@H]2C[C@](C)(N)[C@H](O)[C@H](C)O2)Oc2ccc(cc2Cl)[C@H]1O", 1],
  ["CC(=O)Oc1ccccc1C(=O)Nc1ncc([N+](=O)[O-])s1 [NITAZOXANIDE]", 0.5]
]}

Okay, now this molecule:
[ask] Please look at this molecule and report its MIC50: NC[C@@H]1O[C@H](O[C@H]2[C@@H](O)[C@H](O[C@@H]3[C@@H](O)[C@H](N)C[C@H](N)[C@H]3O[C@H]3O[C@H](CN)[C@@H](O)[C@H](O)[C@H]3N)O[C@@H]2CO)[C@H](N)[C@@H](O)[C@@H]1O
[reply] 256

###

- System: Bacteroides fragilis
- Protocol notes: Antimicrobial activity against Bacteroides fragilis by Wadsworth agar dilution method
- Format: functional
Entries and their MIC50 values follow.
Field format: number, assumed µg/mL, no unit text.

Here's what some known entries look like.
{"columns": ["Compound", "MIC50 (µg/mL)"],
 "data": [
  ["CN[C@H](CC(C)C)C(=O)N[C@H]1C(=O)N[C@@H](CC(N)=O)C(=O)N[C@H]2C(=O)N[C@H]3C(=O)N[C@H](C(=O)N[C@H](C(=O)O)c4cc(O)cc(O)c4-c4cc3ccc4O)[C@H](O)c3ccc(c(Cl)c3)Oc3cc2cc(c3O[C@@H]2O[C@H](CO)[C@@H](O)[C@H](O)[C@H]2O[C@H]2C[C@](C)(N)[C@H](O)[C@H](C)O2)Oc2ccc(cc2Cl)[C@H]1O", 64],
  ["CO[C@H]1/C=C/O[C@@]2(C)Oc3c(C)c(O)c4c(O)c(c5c(nc6cc(C)ccn65)c4c3C2=O)NC(=O)/C(C)=C\\C=C\\[C@H](C)[C@H](O)[C@@H](C)[C@@H](O)[C@@H](C)[C@H](OC(C)=O)[C@@H]1C", 0.25]
]}

Okay, now this compound:
[ask] Please look at this compound and report its MIC50: CC(=O)Oc1ccccc1C(=O)Nc1ncc([N+](=O)[O-])s1 [NITAZOXANIDE]
[reply] 4

###

- System: Actinomyces viscosus
- Protocol notes: Antimicrobial activity against Actinomyces viscosus by Wadsworth agar dilution method
- Assay type: functional
Entries and their MIC90 values follow.
Field format: number, assumed µg/mL, no unit text.

Here's what some known entries look like.
{"columns": ["Compound", "Endpoint unit", "MIC90"],
 "data": [
  ["NC[C@@H]1O[C@H](O[C@H]2[C@@H](O)[C@H](O[C@@H]3[C@@H](O)[C@H](N)C[C@H](N)[C@H]3O[C@H]3O[C@H](CN)[C@@H](O)[C@H](O)[C@H]3N)O[C@@H]2CO)[C@H](N)[C@@H](O)[C@@H]1O", "µg/mL", 1020],
  ["CC(=O)Oc1ccccc1C(=O)Nc1ncc([N+](=O)[O-])s1 [NITAZOXANIDE]", "µg/mL", 32]
]}

Okay, now this compound:
[ask] Please look at this compound and report its MIC90: CN[C@H](CC(C)C)C(=O)N[C@H]1C(=O)N[C@@H](CC(N)=O)C(=O)N[C@H]2C(=O)N[C@H]3C(=O)N[C@H](C(=O)N[C@H](C(=O)O)c4cc(O)cc(O)c4-c4cc3ccc4O)[C@H](O)c3ccc(c(Cl)c3)Oc3cc2cc(c3O[C@@H]2O[C@H](CO)[C@@H](O)[C@H](O)[C@H]2O[C@H]2C[C@](C)(N)[C@H](O)[C@H](C)O2)Oc2ccc(cc2Cl)[C@H]1O
[reply] 64

###

- System: Clostridium sp.
- Protocol notes: Antimicrobial activity against Clostridium sp. by Wadsworth agar dilution method
- Format: functional
Metric: MIC90

Here's what some known entries look like.
{"columns": ["Molecule", "MIC90"],
 "data": [
  ["CN[C@H](CC(C)C)C(=O)N[C@H]1C(=O)N[C@@H](CC(N)=O)C(=O)N[C@H]2C(=O)N[C@H]3C(=O)N[C@H](C(=O)N[C@H](C(=O)O)c4cc(O)cc(O)c4-c4cc3ccc4O)[C@H](O)c3ccc(c(Cl)c3)Oc3cc2cc(c3O[C@@H]2O[C@H](CO)[C@@H](O)[C@H](O)[C@H]2O[C@H]2C[C@](C)(N)[C@H](O)[C@H](C)O2)Oc2ccc(cc2Cl)[C@H]1O", "4 µg/mL"],
  ["CO[C@H]1/C=C/O[C@@]2(C)Oc3c(C)c(O)c4c(O)c(c5c(nc6cc(C)ccn65)c4c3C2=O)NC(=O)/C(C)=C\\C=C\\[C@H](C)[C@H](O)[C@@H](C)[C@@H](O)[C@@H](C)[C@H](OC(C)=O)[C@@H]1C", "> 1020 µg/mL"],
  ["NC[C@@H]1O[C@H](O[C@H]2[C@@H](O)[C@H](O[C@@H]3[C@@H](O)[C@H](N)C[C@H](N)[C@H]3O[C@H]3O[C@H](CN)[C@@H](O)[C@H](O)[C@H]3N)O[C@@H]2CO)[C@H](N)[C@@H](O)[C@@H]1O", "1020 µg/mL"]
]}

Okay, now this molecule:
[ask] Please look at this molecule and report its MIC90: CC(=O)Oc1ccccc1C(=O)Nc1ncc([N+](=O)[O-])s1 [NITAZOXANIDE]
[reply] 4 µg/mL

###

- Test system: Porphyromonas somerae
- Protocol notes: Antimicrobial activity against Porphyromonas somerae by Wadsworth agar dilution method
- Format: functional
Metric: MIC50

{"columns": ["Molecule", "MIC50"],
 "data": [
  ["CC(=O)Oc1ccccc1C(=O)Nc1ncc([N+](=O)[O-])s1 [NITAZOXANIDE]", "0.5 µg/mL"],
  ["CN[C@H](CC(C)C)C(=O)N[C@H]1C(=O)N[C@@H](CC(N)=O)C(=O)N[C@H]2C(=O)N[C@H]3C(=O)N[C@H](C(=O)N[C@H](C(=O)O)c4cc(O)cc(O)c4-c4cc3ccc4O)[C@H](O)c3ccc(c(Cl)c3)Oc3cc2cc(c3O[C@@H]2O[C@H](CO)[C@@H](O)[C@H](O)[C@H]2O[C@H]2C[C@](C)(N)[C@H](O)[C@H](C)O2)Oc2ccc(cc2Cl)[C@H]1O", "4 µg/mL"],
  ["CO[C@H]1/C=C/O[C@@]2(C)Oc3c(C)c(O)c4c(O)c(c5c(nc6cc(C)ccn65)c4c3C2=O)NC(=O)/C(C)=C\\C=C\\[C@H](C)[C@H](O)[C@@H](C)[C@@H](O)[C@@H](C)[C@H](OC(C)=O)[C@@H]1C", "0.25 µg/mL"]
]}

Okay, now this molecule:
[ask] Please look at this molecule and report its MIC50: NC[C@@H]1O[C@H](O[C@H]2[C@@H](O)[C@H](O[C@@H]3[C@@H](O)[C@H](N)C[C@H](N)[C@H]3O[C@H]3O[C@H](CN)[C@@H](O)[C@H](O)[C@H]3N)O[C@@H]2CO)[C@H](N)[C@@H](O)[C@@H]1O
[reply] 512 µg/mL

Each recorded value in this set is attributed to ChEMBL document CHEMBL1275577.
